I'd be grateful if you could share measured glycan array binding signal (z-score) for these entries.
# TARGET OF ASSAY: GalNAc(b1-4)GlcNAc(b1-2)Man(a1-3)[GalNAc(b1-4)GlcNAc(b1-2)Man(a1-6)]Man(b1-4)GlcNAc(b1-4)GlcNAc
# EXPERIMENTAL PROTOCOL: glycan array binding signal (z-score within array); higher = stronger binding
# EXPERIMENTAL PARAMETERS: glycan notation: IUPAC condensed, linker removed
This excerpt belongs to a sample that is enriched for the strongest signals.
One number for each entry.

Required: glycan array binding signal (z-score), one value per binder below.
1. Epa21 (Candida glabrata) (protein) MGSSHHHHHHSSGLVPRGSHMASTPNIESHPQGCSPVDTSGIKPGLKMDLYRFPITPPGTGCWSWDWLTVTPDFPRSGYWKWPKIAEVDGVVGPLHLDSGHPTCDPLTSVLPHGFNYLQSITTTNFTMVLHGYFVPKQSGKYTFEFKADDALLLNLGAGNAFSCCDYNNSQYNQGEYLAYAIWSKNNQTATLYLEKGIYYPIRVFYHNRCCGAYMDVVYYFNDSPIPNRDFSGLLFSIPDSDSCDANI
2. SJCP3842 (Schistosoma japonicum) (protein) MFKMRIINLVNISTVLLLINLLQTKSRLVGKENGFMLTVSIYGAQLSDKMTSVPVSWTIDYEDPEKSAFKKLVTDSCDTFSEYVKSQIPKGSVDGQCTSHIFQRPGSGSGVSISLTLSFIYVDVTQPDTVALKTELEKHFANFVTIHSHKITQAQFRINQKAIVIPTGDKDAIDGSKWKIIAIIALVALAIVVIGGFIYICVK
3. Protein L(B1-B4) (Finegoldia magna), Q51912 (protein) KEETPETPETDSEEEVTIKANLIFANGSTQTAEFKGTFEKATSEAYAYADTLKKDNGEYTVDVADKGYTLNIKFAGKEKTPEEPKEEVTIKANLIYADGKTQTAEFKGTFEEATAEAYRYADALKKDNGEYTVDVADKGYTLNIKFAGKEKTPEEPKEEVTIKANLIYADGKTQTAEFKGTFEEATAEAYRYADLLAKENGKYTVDVADKGYTLNIKFAGKEKTPEEPKEEVTIKANLIYADGKTQTAEFKGTFAEATAEAYRYADLLAKENGKYTADLEDGGYTINIRFAG

Result ::
1: 0.288; 2: 0.2; 3: 1.49

The origin of these recorded values is the supplement of paper PMC8728848.
